# System: MIA PaCa-2 (pancreas, carcinoma) cells
# procedure details: Cell viability assay, CellTiter-Glo (Example 21)
# Format: cell-based, human
# test context: 100 nM, 72 h treatment
The following compounds are listed with their measured MIA PaCa-2 (pancreas, carcinoma) cell viability (% of control) values.

Worked examples, 3 compounds total:
- compound: "O=C1C2=C(CCN(Cc3cc(F)cc(F)c3)C2)N2CCN=C2N1Cc1ccc(Cl)cc1"
  observed value: "18.7 ± 7.1 % of control"
- compound: "O=C1C2=C(CCN(Cc3cccc(F)c3)C2)N2CCN=C2N1Cc1ccc(F)cc1 [I/6, reference compound]"
  observed value: "21.6 ± 9.1 % of control"
- compound: "[N-]=[N+]=Nc1cccc(CN2CCC3=C(C2)C(=O)N(Cc2ccc(C(F)(F)F)cc2)C2=NCCN23)c1"
  observed value: "16.5 ± 6.7 % of control"

Next compound, MIA PaCa-2 (pancreas, carcinoma) cell viability (% of control) to be filled in.
Give the reported MIA PaCa-2 (pancreas, carcinoma) cell viability (% of control) for "[N-]=[N+]=Nc1cccc(CN2CCC3=C(C2)C(=O)N(Cc2ccc(Cl)cc2)C2=NCCN23)c1" (system: MIA PaCa-2 (pancreas, carcinoma) cells).
18.4 ± 7.8 % of control

====

# Tested on: Capan-1 (pancreas, adenocarcinoma) cells
# procedure details: Cell viability assay, CellTiter-Glo (Example 21)
# Assay type: cell-based, human
# test context: 300 nM, 72 h treatment
The following molecules are listed with their measured Capan-1 (pancreas, adenocarcinoma) cell viability (% of control) values.

Worked examples, 3 molecules total:
- molecule: "O=C1C2=C(CCN(Cc3cc(F)cc(F)c3)C2)N2CCN=C2N1Cc1ccc(Cl)cc1"
  observed value: "34.6 ± 2.4 % of control"
- molecule: "O=C1C2=C(CCN(Cc3cccc(F)c3)C2)N2CCN=C2N1Cc1ccc(C(F)(F)F)cc1 [I/3, reference compound]"
  observed value: "33.0 ± 2.2 % of control"
- molecule: "O=C1C2=C(CCN(Cc3ccccc3)C2)N2CCN=C2N1Cc1ccc(C(F)(F)F)cc1 [I/1, reference compound]"
  observed value: "36.8 ± 3.4 % of control"

Item "[N-]=[N+]=Nc1cccc(CN2CCC3=C(C2)C(=O)N(Cc2ccc(C(F)(F)F)cc2)C2=NCCN23)c1" has what recorded Capan-1 (pancreas, adenocarcinoma) cell viability (% of control)?
30.8 ± 3.3 % of control

Item O=C1C2=C(CCN(Cc3cccc(F)c3)C2)N2CCN=C2N1Cc1ccc(F)cc1 [I/6, reference compound] has what recorded Capan-1 (pancreas, adenocarcinoma) cell viability (% of control)?
37.4 ± 3.5 % of control

====

# Test system: FaDu (pharynx, squamous cell carcinoma) cells
# procedure details: Cell viability assay, CellTiter-Glo (Example 21)
# Type: cell-based, human
# test context: 100 nM, 72 h treatment
The following molecules are listed with their measured FaDu (pharynx, squamous cell carcinoma) cell viability (% of control) values.

Worked examples, 3 molecules total:
- molecule: "[N-]=[N+]=Nc1ccc(CN2C(=O)C3=C(CCN(Cc4cc(F)cc(F)c4)C3)N3CCN=C23)cc1"
  observed value: "24.6 ± 3.6 % of control"
- molecule: "O=C1C2=C(CCN(Cc3cc(F)cc(F)c3)C2)N2CCN=C2N1Cc1ccc(Cl)cc1"
  observed value: "24.5 ± 4.6 % of control"
- molecule: "O=C1C2=C(CCN(Cc3cccc(F)c3)C2)N2CCN=C2N1Cc1ccc(C(F)(F)F)cc1 [I/3, reference compound]"
  observed value: "26.2 ± 7.9 % of control"

Next molecule, FaDu (pharynx, squamous cell carcinoma) cell viability (% of control) to be filled in.
Item "[N-]=[N+]=Nc1cccc(CN2CCC3=C(C2)C(=O)N(Cc2ccc(C(F)(F)F)cc2)C2=NCCN23)c1" has what recorded FaDu (pharynx, squamous cell carcinoma) cell viability (% of control)?
21.7 ± 5.4 % of control
